Origin of values: patent US8921397B2

Molecular target: UniProtKB P35462
Sequence (P35462 whole entry): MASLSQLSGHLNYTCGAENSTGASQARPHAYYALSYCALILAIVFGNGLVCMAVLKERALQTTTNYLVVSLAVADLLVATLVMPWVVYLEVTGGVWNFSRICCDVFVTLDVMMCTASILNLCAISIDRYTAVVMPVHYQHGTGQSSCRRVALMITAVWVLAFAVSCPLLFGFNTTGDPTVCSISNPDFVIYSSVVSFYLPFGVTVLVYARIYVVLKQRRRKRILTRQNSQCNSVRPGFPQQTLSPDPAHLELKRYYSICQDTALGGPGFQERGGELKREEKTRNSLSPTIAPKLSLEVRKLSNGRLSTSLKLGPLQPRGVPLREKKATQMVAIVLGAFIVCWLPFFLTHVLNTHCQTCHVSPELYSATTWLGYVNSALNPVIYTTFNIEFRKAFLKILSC
pKi: −log10 of the molar value.
# reported pKi; entries follow

compound: CC(C)(O)CC(=O)N[C@H]1CC[C@H](CCN2CCC(c3coc4ccccc34)CC2)CC1 [Example 34]
pKi: 8.65
//
compound: O=C(N[C@H]1CC[C@H](CCN2CCC(c3coc4ccccc34)CC2)CC1)c1ccc(Cl)cc1 [Example 49]
pKi: 8.49
//
compound: O=C(N[C@H]1CC[C@H](CCN2CCC(c3coc4ccccc34)CC2)CC1)C1(O)CC1 [Example 22]
pKi: 8.83
//
compound: CS(=O)(=O)N[C@H]1CC[C@H](CCN2CCC(c3coc4ccccc34)CC2)CC1 [Example 36]
pKi: 8.55
//
compound: O=C(N[C@H]1CC[C@H](CCN2CCC(c3coc4ccccc34)CC2)CC1)c1ccc(-n2cccn2)cc1 [Example 59]
pKi: 8.24
//
compound: COCC(=O)N[C@H]1CC[C@H](CCN2CCC(c3coc4ccccc34)CC2)CC1 [Example 6]
pKi: 8.45
//
compound: N#CCC(=O)N[C@H]1CC[C@H](CCN2CCC(c3coc4ccccc34)CC2)CC1 [Example 23]
pKi: 9.08
//
compound: CN(C)S(=O)(=O)N[C@H]1CC[C@H](CCN2CCC(c3coc4ccccc34)CC2)CC1 [Example 43]
pKi: 8.52
//
compound: O=C(N[C@H]1CC[C@H](CCN2CCC(c3coc4ccccc34)CC2)CC1)C1CCC1 [Example 20]
pKi: 8.73
//
compound: CC(C)c1ccc(C(=O)N[C@H]2CC[C@H](CCN3CCC(c4coc5ccccc45)CC3)CC2)cc1 [Example 83]
pKi: 8.32
//
compound: O=C(N[C@H]1CC[C@H](CCN2CCC(c3coc4ccccc34)CC2)CC1)C(F)(F)F [Example 39]
pKi: 8.39
//
compound: CC(C)(C)CC(=O)N[C@H]1CC[C@H](CCN2CCC(c3coc4ccccc34)CC2)CC1 [Example 40]
pKi: 8.36
//
compound: O=C(CO)N[C@H]1CC[C@H](CCN2CCC(c3coc4ccccc34)CC2)CC1 [Example 11]
pKi: 8.83
//
compound: O=C(N[C@H]1CC[C@H](CCN2CCC(c3coc4ccccc34)CC2)CC1)c1ccc(C2CC2)cc1 [Example 84]
pKi: 7.85
//
compound: CC(=O)N[C@H]1CC[C@H](CCN2CCC(c3coc4ccccc34)CC2)CC1 [Example 1]
pKi: 8.97
//
compound: O=C(N[C@H]1CC[C@H](CCN2CCC(c3coc4ccccc34)CC2)CC1)C1CC1(F)F (some centres unmarked) [Example 30]
pKi: 8.45
//
compound: O=C(CCC(F)(F)F)N[C@H]1CC[C@H](CCN2CCC(c3coc4ccccc34)CC2)CC1 [Example 44]
pKi: 8.53
//
compound: CC(C)(C)C1CCC(C(=O)N[C@H]2CC[C@H](CCN3CCC(c4coc5ccccc45)CC3)CC2)CC1 (some centres unmarked) [Example 77]
pKi: 8.02
//
compound: Cc1ccc(C(=O)N[C@H]2CC[C@H](CCN3CCC(c4coc5ccccc45)CC3)CC2)cn1 [Example 69]
pKi: 8.60
//
compound: CCCC(=O)N[C@H]1CC[C@H](CCN2CCC(c3coc4ccccc34)CC2)CC1 [Example 33]
pKi: 8.77
//
compound: O=C(N[C@H]1CC[C@H](CCN2CCC(c3coc4ccccc34)CC2)CC1)c1ccc(N2CCOCC2)nc1 [Example 65]
pKi: 8.46
//
compound: O=C(N[C@H]1CC[C@H](CCN2CCC(c3coc4ccccc34)CC2)CC1)c1ccc2ncccc2c1 [Example 73]
pKi: 8.62
//
compound: CN(C)C(=O)CCC(=O)N[C@H]1CC[C@H](CCN2CCC(c3coc4ccccc34)CC2)CC1 [Example 42]
pKi: 8.61
//
compound: O=C(N[C@H]1CC[C@H](CCN2CCC(c3coc4ccccc34)CC2)CC1)C(O)C(F)(F)F (mixture of isomers) [Example 32]
pKi: 8.40
//
compound: CCC(=O)N[C@H]1CC[C@H](CCN2CCC(c3coc4ccccc34)CC2)CC1 [Example 5]
pKi: 8.91
//
compound: O=C(CCO)N[C@H]1CC[C@H](CCN2CCC(c3coc4ccccc34)CC2)CC1 [Example 21]
pKi: 8.90
//
compound: O=C(CC1COC1)N[C@H]1CC[C@H](CCN2CCC(c3coc4ccccc34)CC2)CC1 [Example 76]
pKi: 8.79
//
compound: COCCC(=O)N[C@H]1CC[C@H](CCN2CCC(c3coc4ccccc34)CC2)CC1 [Example 2]
pKi: 8.91
//
compound: O=C(N[C@H]1CC[C@H](CCN2CCC(c3coc4ccccc34)CC2)CC1)c1ccnc2ccccc12 [Example 19]
pKi: 8.47
//
compound: CC(C)(C)c1ccc(C(=O)N[C@H]2CC[C@H](CCN3CCC(c4coc5ccccc45)CC3)CC2)cc1 [Example 60]
pKi: 8.00
//
compound: O=CN[C@H]1CC[C@H](CCN2CCC(c3coc4ccccc34)CC2)CC1 [Example 56]
pKi: 8.57
//
compound: O=C(CC1CCC1)N[C@H]1CC[C@H](CCN2CCC(c3coc4ccccc34)CC2)CC1 [Example 48]
pKi: 8.69
